- SYSTEM_TESTED: H-2 class II histocompatibility antigen gamma chain/Proto-oncogene tyrosine-protein kinase ROS (Mus musculus, UniProt Q78DX7)
- Sequence (Q78DX7 whole entry): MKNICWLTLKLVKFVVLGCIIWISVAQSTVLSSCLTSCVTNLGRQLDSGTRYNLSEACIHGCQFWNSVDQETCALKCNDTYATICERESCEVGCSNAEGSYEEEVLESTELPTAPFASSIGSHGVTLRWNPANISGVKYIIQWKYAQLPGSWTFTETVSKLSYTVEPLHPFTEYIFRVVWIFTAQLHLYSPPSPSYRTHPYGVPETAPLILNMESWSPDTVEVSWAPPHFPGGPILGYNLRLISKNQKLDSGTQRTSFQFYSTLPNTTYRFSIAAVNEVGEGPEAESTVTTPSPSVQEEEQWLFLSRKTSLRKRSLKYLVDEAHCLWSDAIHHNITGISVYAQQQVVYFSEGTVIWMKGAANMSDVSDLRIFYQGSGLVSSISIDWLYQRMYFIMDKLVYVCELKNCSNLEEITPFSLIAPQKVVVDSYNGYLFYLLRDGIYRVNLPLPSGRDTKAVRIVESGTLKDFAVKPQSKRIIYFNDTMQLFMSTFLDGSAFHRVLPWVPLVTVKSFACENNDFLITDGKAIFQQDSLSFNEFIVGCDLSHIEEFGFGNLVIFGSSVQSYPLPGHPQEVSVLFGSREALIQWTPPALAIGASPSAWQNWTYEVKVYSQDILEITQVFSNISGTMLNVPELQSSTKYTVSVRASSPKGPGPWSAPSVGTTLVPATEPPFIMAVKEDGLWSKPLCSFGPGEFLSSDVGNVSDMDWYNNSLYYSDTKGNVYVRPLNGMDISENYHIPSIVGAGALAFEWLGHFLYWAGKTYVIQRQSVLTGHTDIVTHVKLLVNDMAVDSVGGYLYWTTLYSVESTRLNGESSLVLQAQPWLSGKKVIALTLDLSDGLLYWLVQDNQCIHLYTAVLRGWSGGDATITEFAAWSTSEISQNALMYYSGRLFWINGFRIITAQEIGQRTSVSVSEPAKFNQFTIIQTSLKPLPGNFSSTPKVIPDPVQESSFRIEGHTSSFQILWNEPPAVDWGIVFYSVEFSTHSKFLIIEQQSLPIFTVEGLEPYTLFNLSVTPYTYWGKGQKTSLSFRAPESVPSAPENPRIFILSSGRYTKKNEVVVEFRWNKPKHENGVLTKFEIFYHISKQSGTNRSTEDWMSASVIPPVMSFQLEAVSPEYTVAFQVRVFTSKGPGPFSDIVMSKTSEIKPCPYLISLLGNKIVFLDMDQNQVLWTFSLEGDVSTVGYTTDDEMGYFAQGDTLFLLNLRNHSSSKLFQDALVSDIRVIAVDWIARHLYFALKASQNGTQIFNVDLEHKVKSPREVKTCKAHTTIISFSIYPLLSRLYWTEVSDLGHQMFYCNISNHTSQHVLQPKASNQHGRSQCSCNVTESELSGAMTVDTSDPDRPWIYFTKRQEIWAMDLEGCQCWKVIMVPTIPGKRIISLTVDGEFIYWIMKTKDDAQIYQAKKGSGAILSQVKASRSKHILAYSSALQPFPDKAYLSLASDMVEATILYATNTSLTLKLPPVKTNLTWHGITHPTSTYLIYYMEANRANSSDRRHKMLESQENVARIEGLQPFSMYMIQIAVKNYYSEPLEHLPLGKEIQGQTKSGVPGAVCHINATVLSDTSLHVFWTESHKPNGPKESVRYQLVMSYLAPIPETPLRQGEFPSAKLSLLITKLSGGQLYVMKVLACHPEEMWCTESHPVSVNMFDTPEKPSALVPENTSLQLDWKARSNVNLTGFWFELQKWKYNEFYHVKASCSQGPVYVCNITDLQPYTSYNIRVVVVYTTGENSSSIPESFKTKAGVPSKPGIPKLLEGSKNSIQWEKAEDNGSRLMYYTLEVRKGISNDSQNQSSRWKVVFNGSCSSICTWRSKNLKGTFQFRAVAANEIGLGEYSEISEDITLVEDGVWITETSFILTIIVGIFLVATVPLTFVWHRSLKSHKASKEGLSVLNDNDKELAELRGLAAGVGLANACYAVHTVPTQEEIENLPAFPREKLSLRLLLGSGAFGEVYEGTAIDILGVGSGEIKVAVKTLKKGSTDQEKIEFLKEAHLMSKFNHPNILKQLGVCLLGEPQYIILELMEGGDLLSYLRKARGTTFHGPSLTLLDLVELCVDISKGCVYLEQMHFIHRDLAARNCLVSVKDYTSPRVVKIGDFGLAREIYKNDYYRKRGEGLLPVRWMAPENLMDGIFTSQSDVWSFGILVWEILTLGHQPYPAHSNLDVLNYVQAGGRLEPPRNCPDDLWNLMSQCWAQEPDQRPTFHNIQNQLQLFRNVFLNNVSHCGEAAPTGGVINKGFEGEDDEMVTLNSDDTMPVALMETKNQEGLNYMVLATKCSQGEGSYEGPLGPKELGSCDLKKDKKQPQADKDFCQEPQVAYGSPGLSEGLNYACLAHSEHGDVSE
- Sequence (P04441 whole entry, further chain): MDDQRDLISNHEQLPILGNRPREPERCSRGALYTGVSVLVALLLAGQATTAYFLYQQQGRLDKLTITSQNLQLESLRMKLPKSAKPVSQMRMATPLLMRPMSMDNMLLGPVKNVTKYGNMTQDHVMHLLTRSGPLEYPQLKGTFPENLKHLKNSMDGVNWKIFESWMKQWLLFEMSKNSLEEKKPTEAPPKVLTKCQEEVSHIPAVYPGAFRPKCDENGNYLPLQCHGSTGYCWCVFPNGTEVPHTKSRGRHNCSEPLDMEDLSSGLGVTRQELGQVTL
- PROTOCOL_DESCRIPTION: Inhibition of CD74-ROS1 expressed in mouse NIH3T3 cells assessed as inhibition of phosphorylated ROS1 incubated for 1 hr by ELISA analysis
- Assay type: cell-based
Each item that follows carries a reported IC50.
ASSAY_READOUT: IC50 (nM)

> print(dat)
                            smiles.notation  prefix.operator  meas.value
1  Cc1cc(Nc2ncc(Cl)c(Nc3ccccc3S(=O)(=O)C(C)C)n2)c(OC(C)C)cc1C1CCNCC1                =         341
2  C[C@@H](Oc1cc(-c2cnn(C3CCNCC3)c2)cnc1N)c1c(Cl)ccc(F)c1Cl                =          11
3  COc1cc2c(Oc3ccc(NC(=O)C4(C(=O)Nc5ccc(F)cc5)CC4)cc3F)ccnc2cc1OCCCN1CCOCC1                =        5.47
4  CCc1cc2c(cc1N1CCC(N3CCOCC3)CC1)C(C)(C)c1[nH]c3cc(C#N)ccc3c1C2=O                >        5000
